B1: KIAA0774 (parent)
chain: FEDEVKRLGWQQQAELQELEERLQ

- Variants of: B1
- protocol notes: protein stability index of a GFP-peptide fusion (GPS, HEK-293T) (PSI 1-6); higher = more stable;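 also: lentivirally expressed fusions sorted by FACS into six bins by GFP to DsRed ratio, PSI derived from sequencing read proportions per bin multiplied by bin number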
- recorded conditions: c terminus: a fixed tail appended
Label rule, in plain words: protein stability index of 4 and up is Y, under 4 is N.

[
  {
    "changes": "Q17N",
    "label class": "Y"
  },
  {
    "changes": "E15G",
    "label class": "N"
  },
  {
    "changes": "Q12M",
    "label class": "N"
  },
  {
    "changes": "E20V",
    "label class": "N"
  },
  {
    "changes": "L23H",
    "label class": "Y"
  },
  {
    "changes": "F1N",
    "label class": "Y"
  },
  {
    "changes": "Q13M",
    "label class": "N"
  },
  {
    "changes": "E18T",
    "label class": "Y"
  },
  {
    "changes": "A14L",
    "label class": "N"
  },
  {
    "changes": "G9W",
    "label class": "N"
  },
  {
    "changes": "R22Y",
    "label class": "Y"
  },
  {
    "changes": "E15K",
    "label class": "N"
  },
  {
    "changes": "D3F",
    "label class": "N"
  },
  {
    "changes": "Q13V",
    "label class": "N"
  },
  {
    "changes": "L23D",
    "label class": "Y"
  },
  {
    "changes": "E2P",
    "label class": "N"
  },
  {
    "changes": "E15N",
    "label class": "Y"
  },
  {
    "changes": "Q12S",
    "label class": "Y"
  },
  {
    "changes": "F1P",
    "label class": "Y"
  },
  {
    "changes": "E4T",
    "label class": "N"
  },
  {
    "changes": "L8Y",
    "label class": "N"
  },
  {
    "changes": "R22K",
    "label class": "N"
  },
  {
    "changes": "L8H",
    "label class": "N"
  },
  {
    "changes": "E2Y",
    "label class": "N"
  },
  {
    "changes": "R22D",
    "label class": "Y"
  },
  {
    "changes": "L8K",
    "label class": "N"
  },
  {
    "changes": "R22Q",
    "label class": "Y"
  },
  {
    "changes": "L19Q",
    "label class": "Y"
  },
  {
    "changes": "E20W",
    "label class": "N"
  },
  {
    "changes": "R7E",
    "label class": "Y"
  },
  {
    "changes": "F1G",
    "label class": "N"
  },
  {
    "changes": "Q24K",
    "label class": "Y"
  },
  {
    "changes": "A14S",
    "label class": "Y"
  },
  {
    "changes": "R22L",
    "label class": "Y"
  },
  {
    "changes": "V5Q",
    "label class": "Y"
  },
  {
    "changes": "D3S",
    "label class": "N"
  },
  {
    "changes": "Q24Y",
    "label class": "N"
  },
  {
    "changes": "V5W",
    "label class": "N"
  },
  {
    "changes": "Q13L",
    "label class": "N"
  },
  {
    "changes": "Q11C",
    "label class": "N"
  },
  {
    "changes": "D3T",
    "label class": "N"
  },
  {
    "changes": "G9I",
    "label class": "N"
  }
]
